system_tested: Carbonic anhydrase 9 (Homo sapiens)
pKi: −log10 of the molar value.
Decision: pKi compared against 8; not below it gives Condition met, below it gives Condition not met.

Would you please look over these solved cases?
Cc1ccc([SeH])cc1 ... Condition not met
NS(=O)(=O)c1ccc(N/C=C/C(=O)c2cccs2)cc1 ... Condition met
Cc1ccc(C(=O)/C=C/Nc2ccc(S(N)(=O)=O)cc2)cc1 ... Condition met
[SeH]c1ccc2ccccc2c1 ... Condition not met
NS(=O)(=O)c1ccc(N/C=C/C(=O)c2ccccc2)cc1 ... Condition met
Fc1ccc([SeH])cc1 ... Condition not met

Reported pKi at or above 8? `NS(=O)(=O)c1ccc(N/C=C/C(=O)c2ccco2)cc1` Condition met

Continue with `NS(=O)(=O)c1ccc(N/C=C/C(=O)c2ccc(Br)cc2)cc1` Condition met

Continue with `N#CCSc1nc2ccccc2c(=O)n1CCc1ccc(S(N)(=O)=O)cc1` Condition not met

Continue with `COc1ccc(C(=O)/C=C/Nc2ccc(S(N)(=O)=O)cc2)cc1` Condition met

---

List of log10(Ki) values.
system_tested: UniProt Q16790
The common logarithm of Ki in nM is what is listed.

Reference set (6 entries):
NS(=O)(=O)c1ccc(N=C2C(=O)Nc3ccccc32)cc1 ... 1.14
CN1C(=O)/C(=N\c2ccc(S(N)(=O)=O)cc2)c2ccccc21 ... 1.14
C/C(=N\NC(=O)c1ccc(S(N)(=O)=O)cc1)c1ccc(N2C(=O)C3CC=CCC3C2=O)cc1 (centres undefined) ... 1.24
C/C(=N\O)c1ccc(N2C(=O)c3ccc(C(=O)O)cc3C2=O)cc1 ... 2.23
C/C(=N\O)c1ccc(N2C(=O)c3ccccc3C2=O)cc1 ... 2.23
C/C(=N\NC(=O)c1ccc(S(N)(=O)=O)cc1)c1ccc(N2C(=O)c3ccccc3C2=O)cc1 ... 1.24

Can you share its log10(Ki)? I mean this compound: `NS(=O)(=O)c1ccc(NCC(=O)N/N=C2\C(=O)N(Cc3ccccc3)c3ccccc32)cc1` 1.21

Continue with `C/C(=N\NC(=O)c1ccc(S(N)(=O)=O)cc1)c1ccc(N2C(=O)c3ccc(C(C)(C)C)cc3C2=O)cc1` 1.92

Continue with `NS(=O)(=O)c1ccc(N/N=C2\C(=O)Nc3ccccc32)cc1` 1.33

Continue with `NS(=O)(=O)c1ccc(/N=C2\C(=O)N(Cc3ccccc3)c3ccccc32)cc1` 1.14

Continue with `CCN1C(=O)/C(=N\Nc2ccc(S(N)(=O)=O)cc2)c2ccccc21` 1.37

---

List of pKi values.
system_tested: Carbonic anhydrase 1 (Homo sapiens, UniProt P00915)
Sequence (P00915 whole entry): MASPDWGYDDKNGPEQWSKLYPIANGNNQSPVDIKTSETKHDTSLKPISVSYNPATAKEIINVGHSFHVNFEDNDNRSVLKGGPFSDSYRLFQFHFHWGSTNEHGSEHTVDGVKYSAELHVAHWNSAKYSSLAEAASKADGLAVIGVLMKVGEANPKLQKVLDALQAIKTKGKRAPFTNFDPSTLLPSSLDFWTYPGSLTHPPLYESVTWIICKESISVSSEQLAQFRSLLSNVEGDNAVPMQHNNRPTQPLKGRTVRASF
pKi: −log10 of the molar value.

NS(=O)(=O)c1ccc(CCN2C(=O)c3ccc(C(=O)O)cc3C2=O)cc1 ... 7.27
O=C(O)c1ccc(N2C(=O)c3ccc(C(=O)O)cc3C2=O)cc1 ... < 5.00

Can you share its pKi? I mean this compound: `O=C(O)c1ccc2c(c1)C(=O)N(Cc1ccccc1)C2=O` < 5.00

Continue with `CCOC(=O)c1ccc(N2C(=O)c3ccc(C(=O)OC)cc3C2=O)cc1` < 5.00

Continue with `COC(=O)c1ccc2c(c1)C(=O)N(c1ccccc1)C2=O` < 5.00

Continue with `COC(=O)c1ccc2c(c1)C(=O)N(Cc1ccccc1)C2=O` < 5.00
